# test-name: Population pharmacokinetics of HCQ in whole blood
# Type: in vivo, human
# test-conditions: human, whole blood, oral, Vc/F, apparent central volume of distribution, bootstrap estimate, population PK, 1000 bootstrap runs
endpoint: Vd/F (L)
Output spec: scalar in L, unitless text.

Any idea what its Vd/F is? The molecule is CCN(CCO)CCCC(C)Nc1ccnc2cc(Cl)ccc12 (stereo not shown) [HCQ, hydroxychloroquine] 500
